assay: Pharmacokinetic study after intravenous injection; type: in vivo; details: male, Sprague Dawley, rat; SD rats, 5 mg/kg intravenous, plasma, n = 5; read-out: t1/2z (half-life) (converted)
quantity: half-life (h)
The reply should contain only the number, in h.

Task: Param item = COc1cc(/C=C/C(=O)CC(=O)/C=C/c2ccc(O)c(OC)c2)ccc1O ; retrieve measured half-life.
Result: 5.6

###

test: Pharmacokinetic study after intravenous injection; type: in vivo; settings: male, Sprague Dawley, rat; SD rats, 5 mg/kg intravenous, plasma, n = 5; read-out: CLz (clearance) (converted)
quantity: clearance (mL/min/kg)
Give the quantity in mL/min/kg, number only.

Task: What measured clearance goes with COc1cc(/C=C/C(=O)CC(=O)/C=C/c2ccc(O)c(OC)c2)ccc1O [Cur, Curcumin] ?
Result: 171

###

assay: Pharmacokinetic study after intravenous injection; type: in vivo; settings: male, Sprague Dawley, rat; SD rats, 5 mg/kg intravenous, plasma, n = 5; read-out: MRT0–∞
quantity: MRT inf (h)
Kindly answer with a numeric value in h, unit omitted.

Task: Entry under review: COc1cc(/C=C/C(=O)CC(=O)/C=C/c2ccc(O)c(OC)c2)ccc1O [Cur, Curcumin] . Reported MRT inf?
Result: 10.8

###

test: Pharmacokinetic study after intravenous injection; type: in vivo; conditions: male, Sprague Dawley, rat; SD rats, 5 mg/kg intravenous, plasma, n = 5
quantity: AUC(0-inf) (ng·h/mL)
Number in ng·h/mL, nothing else.

Task: Requested field: AUC(0-inf). Item: COc1cc(/C=C/C(=O)CC(=O)/C=C/c2ccc(O)c(OC)c2)ccc1O [Cur, Curcumin]
Result: 4880

###

test: Pharmacokinetic study after intravenous injection; assay type: in vivo; conditions: male, Sprague Dawley, rat; SD rats, 5 mg/kg intravenous, plasma, n = 5; read-out: MRT0–t
quantity: MRT last (h)
Just the number please, in h, no unit attached.

Task: Dear colleague, I am looking for the recorded MRT last of the following compound: COc1cc(/C=C/C(=O)CC(=O)/C=C/c2ccc(O)c(OC)c2)ccc1O
Result: 9.53

###

test: Pharmacokinetic study after intravenous injection; assay type: in vivo; details: male, Sprague Dawley, rat; SD rats, 5 mg/kg intravenous, plasma, n = 5
quantity: Cmax (ng/mL)
Give the value in ng/mL but do not write ng/mL after it.

Task: I have this compound here, COc1cc(/C=C/C(=O)CC(=O)/C=C/c2ccc(O)c(OC)c2)ccc1O [Cur, Curcumin] , and I need its recorded Cmax.
Result: 332
